Measured SC 1.5:0.1, listed per entry for reference.
Biological target: Recombinant human liver GK1 (GST-GK) (Homo sapiens, UniProt P35557)
Construct: made in house; host or cells: E. coli
Sequence (P35557 1-466 isoform P35557-2): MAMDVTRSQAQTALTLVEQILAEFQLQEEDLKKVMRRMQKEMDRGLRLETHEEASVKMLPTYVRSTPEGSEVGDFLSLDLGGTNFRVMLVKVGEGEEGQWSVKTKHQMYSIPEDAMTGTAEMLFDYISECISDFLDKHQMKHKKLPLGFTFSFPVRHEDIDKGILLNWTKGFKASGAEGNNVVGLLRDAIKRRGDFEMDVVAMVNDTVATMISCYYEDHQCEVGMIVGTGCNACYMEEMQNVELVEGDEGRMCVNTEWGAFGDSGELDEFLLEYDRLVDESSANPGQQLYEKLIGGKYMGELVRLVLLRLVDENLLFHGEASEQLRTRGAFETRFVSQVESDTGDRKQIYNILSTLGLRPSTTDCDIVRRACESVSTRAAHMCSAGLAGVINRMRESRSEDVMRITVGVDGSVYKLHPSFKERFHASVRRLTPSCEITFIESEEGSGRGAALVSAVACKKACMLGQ
Test: In vitro glucokinase activity (G6PDH-coupled NADH generation assay)
Format: biochemical
Design: unit not given here
Settings: concentration of activator that produced a 50% increase in the activity of GK; 5 mM D-glucose, 30° C., pH 7.1, 10% DMSO
Experimental: Glucokinase In Vitro Assay Protocol: Glucokinase (GK) was assayed by coupling the production of glucose-6-phosphate to the generation of NADH with glucose-6-phosphate dehydrogenase (G6PDH, 0.75-1 kunits/mg; Boehringer Mannheim, Indianapolis, Ind.) from Leuconostoc mesenteroides as the coupling enzyme: […] After addition of enzyme, the increase in optical density (OD) at 340 nm was monitored spectrophotometrically to determine the rate of change (OD340 per min). […]
MEASUREMENT_KIND: SC 1.5:0.1

{"SMILES_TEXT": "CC(C)C[C@@H](C(=O)Nc1nccs1)N1CC2=C(Oc3cccc(Cl)c3C2)C1=O", "MEASURED_ON": "Recombinant human liver GK1 (GST-GK) (Homo sapiens, UniProt P35557)", "MEASUREMENT_KIND": "SC 1.5:0.1", "NUMBER": 9.277}
{"SMILES_TEXT": "COc1cccc2c1CC1=C(O2)C(=O)N([C@@H](CC(C)C)C(=O)Nc2nccs2)C1", "MEASURED_ON": "Recombinant human liver GK1 (GST-GK) (Homo sapiens, UniProt P35557)", "MEASUREMENT_KIND": "SC 1.5:0.1", "NUMBER": 8.123}
{"SMILES_TEXT": "O=C(Nc1ccccn1)[C@H](CC1CCCCC1)N1CC2=C(Oc3c(Cl)cccc3C2)C1=O", "MEASURED_ON": "Recombinant human liver GK1 (GST-GK) (Homo sapiens, UniProt P35557)", "MEASUREMENT_KIND": "SC 1.5:0.1", "NUMBER": 2.423}

Recorded values, source patent US8178689B2.
